biological target: human P2Y6 receptor (Homo sapiens, UniProt Q15077); assay: Fluo-3 calcium mobilization, FLIPR, […]1 cells
Sequence (Q15077 whole entry): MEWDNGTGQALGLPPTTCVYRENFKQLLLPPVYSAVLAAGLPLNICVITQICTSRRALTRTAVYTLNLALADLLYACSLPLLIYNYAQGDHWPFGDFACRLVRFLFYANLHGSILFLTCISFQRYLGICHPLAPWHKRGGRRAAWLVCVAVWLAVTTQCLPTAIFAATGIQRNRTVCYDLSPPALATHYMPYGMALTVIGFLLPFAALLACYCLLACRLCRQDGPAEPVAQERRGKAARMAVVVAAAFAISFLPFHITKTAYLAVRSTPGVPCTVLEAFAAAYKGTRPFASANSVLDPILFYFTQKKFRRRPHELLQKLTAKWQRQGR
measureName: pEC50
By convention, pEC50 is the negative base-10 log of a molar concentration.

Qu. Reported pEC50, compound O=c1[nH]c(=S)ccn1[C@@H]1O[C@H](COP(=O)(O)OP(=O)(O)OC[C@H]2O[C@@H](n3ccc(=S)[nH]c3=O)[C@H](O)[C@@H]2O)[C@@H](O)[C@H]1O [compound 23, 4-thioUP24-thioU] : ____
Ans. 4.60

###

target: human P2Y1 receptor (Homo sapiens); assay: Fluo-3 calcium mobilization, FLIPR, […]1 cells
measureName: EC50 (µM)
Give the value, in units of µM, as a plain number.

Qu. Given "Nc1ncnc2c1ncn2[C@@H]1O[C@H](COP(=O)(O)OP(=O)(O)OP(=O)(O)OP(=O)(O)OC[C@H]2O[C@@H](n3cnc4c(N)ncnc43)[C@H](O)[C@@H]2O)[C@@H](O)[C@H]1O" , state its recorded EC50.
Ans. 0.32

Qu. Would you mind doing "Nc1ccn([C@@H]2O[C@H](COP(=O)(O)OP(=O)(O)OP(=O)(O)OP(=O)(O)OC[C@H]3O[C@@H](n4cnc5c(N)ncnc54)[C@H](O)[C@@H]3O)[C@@H](O)[C@H]2O)c(=O)n1" as well?
Ans. 0.75

Qu. And "Nc1ncnc2c1ncn2[C@@H]1O[C@H](CO[P@](=O)(O)O[P@](=O)(O)OC[C@H]2O[C@@H](n3cnc4c(N)ncnc43)[C@H](O)[C@@H]2O)[C@@H](O)[C@H]1O" ?
Ans. 4.25

###

target: human P2Y6 receptor (Homo sapiens, UniProt Q15077); assay: Fluo-3 calcium mobilization, FLIPR, […]1 cells
measureName: pEC50
// pEC50: -log10(molar conc.)

Qu. Name the reported pEC50 value associated with the compound "O=c1ccn([C@@H]2O[C@H](COP(=O)(O)OP(=O)(O)OP(=O)(O)O)[C@@H](O)[C@H]2O)c(=O)[nH]1"
Ans. 5.83

Qu. Query "Nc1ccn([C@H]2C[C@H](O)[C@@H](COP(=O)(O)OP(=O)(O)OP(=O)(O)OP(=O)(O)OC[C@H]3O[C@@H](n4ccc(=O)[nH]c4=O)[C@H](O)[C@@H]3O)O2)c(=O)n1" next
Ans. 4.80

Qu. And what about the compound "Nc1ccn([C@@H]2O[C@H](COP(=O)(O)OP(=O)(O)OP(=O)(O)OP(=O)(O)OC[C@H]3O[C@@H](n4ccc(=O)[nH]c4=O)[C@H](O)[C@@H]3O)[C@@H](O)[C@@H]2O)c(=O)n1" ?
Ans. 5.48

Qu. Next: "O=c1ccn([C@@H]2O[C@H](COP(=O)(O)OP(=O)(O)OP(=O)(O)OC[C@H]3O[C@@H](n4cnc5c(=O)[nH]cnc54)[C@H](O)[C@@H]3O)[C@@H](O)[C@H]2O)c(=O)[nH]1"
Ans. 5.88

Qu. Ok, now "Nc1ccn([C@@H]2O[C@H](COP(=O)(O)OP(=O)(O)OP(=O)(O)OP(=O)(O)OC[C@H]3O[C@@H](n4ccc(=O)[nH]c4=O)[C@H](O)[C@@H]3O)[C@@H](O)[C@H]2O)c(=O)n1"
Ans. 4.92

Qu. What about "O=c1ccn([C@@H]2O[C@H](COP(=O)(O)OP(=O)(O)OP(=O)(O)OP(=O)(O)OC[C@H]3O[C@@H](n4ccc(=O)[nH]c4=O)[C@H](O)[C@@H]3O)[C@@H](O)[C@H]2O)c(=O)[nH]1" ?
Ans. 4.61

Qu. Subsequent entry: "Nc1nc2c(ncn2[C@@H]2O[C@H](COP(=O)(O)OP(=O)(O)OC[C@H]3O[C@@H](n4cnc5c(N)ncnc54)[C@H](O)[C@@H]3O)[C@@H](O)[C@H]2O)c(=O)[nH]1"
Ans. 5.04

###

molecular target: human P2Y1 receptor (Homo sapiens, UniProt P47900); experiment: Fluo-3 calcium mobilization, FLIPR, […]1 cells
Sequence (P47900 whole entry): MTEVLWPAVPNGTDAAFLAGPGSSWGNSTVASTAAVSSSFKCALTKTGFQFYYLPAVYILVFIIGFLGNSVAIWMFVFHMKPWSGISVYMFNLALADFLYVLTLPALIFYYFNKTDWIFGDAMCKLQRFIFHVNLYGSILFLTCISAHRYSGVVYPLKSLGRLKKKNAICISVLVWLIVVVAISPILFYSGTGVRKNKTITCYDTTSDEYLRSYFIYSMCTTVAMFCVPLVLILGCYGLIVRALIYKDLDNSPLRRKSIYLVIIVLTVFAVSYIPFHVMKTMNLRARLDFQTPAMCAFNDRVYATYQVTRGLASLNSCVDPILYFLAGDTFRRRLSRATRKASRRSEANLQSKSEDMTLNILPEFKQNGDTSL
measureName: EC50 (µM)
State the answer as a number, implicitly in µM.

Qu. // lookup EC50 for "Nc1ccn([C@@H]2O[C@H](COP(=O)(O)OP(=O)(O)OP(=O)(O)OP(=O)(O)OC[C@H]3O[C@@H](n4ccc(=O)[nH]c4=O)[C@H](O)[C@@H]3O)[C@@H](O)[C@@H]2O)c(=O)n1"
Ans. 6.13

Qu. Same thing, different compound: "Nc1nc2c(ncn2[C@@H]2O[C@H](COP(=O)(O)OP(=O)(O)OC[C@H]3O[C@@H](n4cnc5c(N)ncnc54)[C@H](O)[C@@H]3O)[C@@H](O)[C@H]2O)c(=O)[nH]1"
Ans. 26.5

Qu. "Nc1nc2c(ncn2[C@H]2C[C@H](O)[C@@H](COP(=O)(O)OP(=O)(O)OC[C@H]3O[C@@H](n4cnc5c(N)ncnc54)[C@H](O)[C@@H]3O)O2)c(=O)[nH]1" , same question.
Ans. 24.6

Qu. Now consider "Nc1ccn([C@@H]2O[C@H](COP(=O)(O)OP(=O)(O)OC[C@H]3O[C@@H](n4cnc5c(N)ncnc54)[C@H](O)[C@@H]3O)[C@@H](O)[C@H]2O)c(=O)n1" .
Ans. 2.11

###

molecular target: human P2Y1 receptor (Homo sapiens, UniProt P47900); assay: Fluo-3 calcium mobilization, FLIPR, […]1 cells
measureName: EC50 (nM)
// note: answer is a bare numeric in nM

Qu. Quick one: EC50 for Nc1ncnc2c1ncn2[C@@H]1O[C@H](COP(=O)(O)OP(=O)(O)OP(=O)(O)OC[C@H]2O[C@@H](n3ccc(=O)[nH]c3=O)[C@H](O)[C@@H]2O)[C@@H](O)[C@H]1O [compound 26, AP3U] ?
Ans. 39

Qu. Another molecule to look at: Nc1ncnc2c1ncn2[C@H]1C[C@H](O)[C@@H](COP(=O)(O)OP(=O)(O)OP(=O)(O)OP(=O)(O)OC[C@H]2O[C@@H](n3ccc(=O)[nH]c3=O)[C@H](O)[C@@H]2O)O1 [compound 52, UP4dA]
Ans. 3490

Qu. Note, next up: Nc1ncnc2c1ncn2[C@@H]1O[C@H](COP(=O)(O)OP(=O)(O)OP(=O)(O)OC[C@H]2O[C@@H](n3cnc4c(=O)[nH]cnc43)[C@H](O)[C@@H]2O)[C@@H](O)[C@H]1O [compound 29, AP3I]
Ans. 110

###

target: human P2Y2 receptor (Homo sapiens, UniProt P41231); test: Fluo-3 calcium mobilization, FLIPR, […]1 cells; assay type: cell-based
Sequence (P41231 whole entry): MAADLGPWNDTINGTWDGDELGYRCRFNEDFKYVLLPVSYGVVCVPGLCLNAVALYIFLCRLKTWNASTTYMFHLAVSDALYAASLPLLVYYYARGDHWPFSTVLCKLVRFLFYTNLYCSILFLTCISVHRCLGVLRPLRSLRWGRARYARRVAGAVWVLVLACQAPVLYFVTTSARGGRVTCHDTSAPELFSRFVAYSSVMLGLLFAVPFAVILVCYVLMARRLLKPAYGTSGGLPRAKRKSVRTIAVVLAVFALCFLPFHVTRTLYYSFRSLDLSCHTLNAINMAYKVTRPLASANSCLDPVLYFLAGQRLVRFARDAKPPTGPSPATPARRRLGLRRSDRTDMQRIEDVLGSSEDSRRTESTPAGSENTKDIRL
measureName: pEC50
Hey, just a heads up that pEC50 is the negative log base 10 of the concentration in molar.

Qu. Requested field: pEC50. Item: "Nc1nc2c(ncn2[C@H]2C[C@H](O)[C@@H](COP(=O)(O)OP(=O)(O)OP(=O)(O)OP(=O)(O)OC[C@H]3O[C@@H](n4ccc(=O)[nH]c4=O)[C@H](O)[C@@H]3O)O2)c(=O)[nH]1"
Ans. 7.22

Qu. Then what about the molecule "Nc1ncnc2c1ncn2[C@@H]1O[C@H](COP(=O)(O)OP(=O)(O)OP(=O)(O)OP(=O)(O)OC[C@H]2O[C@@H](n3cnc4c(=O)[nH]cnc43)[C@H](O)[C@@H]2O)[C@@H](O)[C@H]1O" ?
Ans. 6.77

Qu. Moving on to "Nc1nc2c(ncn2[C@@H]2O[C@H](COP(=O)(O)OP(=O)(O)OC[C@H]3O[C@@H](n4cnc5c(N)ncnc54)[C@H](O)[C@@H]3O)[C@@H](O)[C@H]2O)c(=O)[nH]1"
Ans. 5.89

Qu. Same for "Nc1ccn([C@@H]2O[C@H](COP(=O)(O)OP(=O)(O)OP(=O)(O)OP(=O)(O)OC[C@H]3O[C@@H](n4cnc5c(N)ncnc54)[C@H](O)[C@@H]3O)[C@@H](O)[C@H]2O)c(=O)n1"
Ans. 6.82

###

target: UniProt P51582; assay: Fluo-3 calcium mobilization, FLIPR, […]1 cells
Sequence (P51582 whole entry): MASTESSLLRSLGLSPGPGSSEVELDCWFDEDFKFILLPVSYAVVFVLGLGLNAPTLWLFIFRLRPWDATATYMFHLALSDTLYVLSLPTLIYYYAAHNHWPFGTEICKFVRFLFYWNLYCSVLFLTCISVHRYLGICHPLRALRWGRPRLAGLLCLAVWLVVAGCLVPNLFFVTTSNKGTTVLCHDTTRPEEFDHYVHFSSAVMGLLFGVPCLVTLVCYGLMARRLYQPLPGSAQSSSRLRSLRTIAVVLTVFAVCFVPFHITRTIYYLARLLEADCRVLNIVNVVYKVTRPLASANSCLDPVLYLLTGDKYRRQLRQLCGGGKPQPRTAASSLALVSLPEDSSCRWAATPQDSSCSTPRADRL
measureName: EC50 (nM)
Write the value in nM as a bare number.

Qu. Quick check: EC50 of "O=c1ccn([C@@H]2O[C@H](COP(=O)(O)OP(=O)(O)OP(=O)(O)OP(=O)(O)OC[C@H]3O[C@@H](n4cnc5c(=O)[nH]cnc54)C[C@@H]3O)[C@@H](O)[C@H]2O)c(=O)[nH]1" ?
Ans. 470

Qu. Same thing, different molecule: "O=c1[nH]c(=S)ccn1[C@@H]1O[C@H](COP(=O)(O)OP(=O)(O)OC[C@H]2O[C@@H](n3ccc(=S)[nH]c3=O)[C@H](O)[C@@H]2O)[C@@H](O)[C@H]1O"
Ans. 33900

Qu. Please do the same for "Nc1ccn([C@@H]2O[C@H](COP(=O)(O)OP(=O)(O)OP(=O)(O)OC[C@H]3O[C@@H](n4ccc(=O)[nH]c4=O)[C@H](O)[C@@H]3O)[C@@H](O)[C@H]2O)c(=O)n1" as well.
Ans. 16700

Qu. "O=c1ccn([C@@H]2O[C@H](COP(=O)(O)OP(=O)(O)OP(=O)(O)O)[C@@H](O)[C@H]2O)c(=O)[nH]1" , same question.
Ans. 70

Qu. Same thing, different molecule: "O=c1ccn([C@@H]2O[C@H](COP(=O)(O)OP(=O)(O)OP(=O)(O)OP(=O)(O)OC[C@H]3O[C@@H](n4cnc5c(=O)[nH]cnc54)[C@H](O)[C@@H]3O)[C@@H](O)[C@H]2O)c(=O)[nH]1"
Ans. 280

Qu. Moving on to "Nc1nc2c(ncn2[C@@H]2O[C@H](COP(=O)(O)OP(=O)(O)OC[C@H]3O[C@@H](n4ccc(=O)[nH]c4=O)[C@H](O)[C@@H]3O)[C@@H](O)[C@H]2O)c(=O)[nH]1"
Ans. 4640

Qu. And "Nc1nc2c(ncn2[C@H]2C[C@H](O)[C@@H](COP(=O)(O)OP(=O)(O)OP(=O)(O)OP(=O)(O)OC[C@H]3O[C@@H](n4ccc(=O)[nH]c4=O)[C@H](O)[C@@H]3O)O2)c(=O)[nH]1" ?
Ans. 140

Qu. And then "O=c1ccn([C@@H]2O[C@H](COP(=O)(O)OP(=O)(O)OP(=O)(O)OP(=O)(O)OC[C@H]3O[C@@H](n4ccc(=S)[nH]c4=O)[C@H](O)[C@@H]3O)[C@@H](O)[C@H]2O)c(=O)[nH]1" , what is it?
Ans. 170

Qu. How about this molecule: "O=c1ccn([C@@H]2O[C@H](COP(=O)(O)OP(=O)(O)OP(=O)(O)OP(=O)(O)OC[C@H]3O[C@@H](n4ccc(=O)[nH]c4=O)[C@H](O)[C@@H]3O)[C@@H](O)[C@H]2O)c(=O)[nH]1"
Ans. 200

Qu. Input "Nc1ncnc2c1ncn2[C@H]1C[C@H](O)[C@@H](COP(=O)(O)OP(=O)(O)OP(=O)(O)OP(=O)(O)OC[C@H]2O[C@@H](n3ccc(=O)[nH]c3=O)[C@H](O)[C@@H]2O)O1"
Ans. 70

Qu. How about this molecule: "O=c1[nH]c(=S)ccn1[C@@H]1O[C@H](COP(=O)(O)OP(=O)(O)OP(=O)(O)OP(=O)(O)OC[C@H]2O[C@@H](n3ccc(=S)[nH]c3=O)[C@H](O)[C@@H]2O)[C@@H](O)[C@H]1O"
Ans. 90

Qu. Now the same for "Nc1ncnc2c1ncn2[C@@H]1O[C@H](COP(=O)(O)OP(=O)(O)OP(=O)(O)OC[C@H]2O[C@@H](n3cnc4c(=O)[nH]cnc43)[C@H](O)[C@@H]2O)[C@@H](O)[C@H]1O"
Ans. 2550

Qu. Ok, now "Nc1nc2c(ncn2[C@@H]2O[C@H](COP(=O)(O)OP(=O)(O)OP(=O)(O)OC[C@H]3O[C@@H](n4cnc5c(=O)[nH]cnc54)[C@H](O)[C@@H]3O)[C@@H](O)[C@H]2O)c(=O)[nH]1"
Ans. 6410

Qu. Same question, "Nc1nc2c(ncn2[C@@H]2O[C@H](COP(=O)(O)OP(=O)(O)OP(=O)(O)OC[C@H]3O[C@@H](n4cnc5c(N)ncnc54)[C@H](O)[C@@H]3O)[C@@H](O)[C@H]2O)c(=O)[nH]1" this time
Ans. 520

Qu. Follow-up item: "Cc1cn([C@H]2C[C@H](O)[C@@H](COP(=O)(O)OP(=O)(O)OP(=O)(O)OP(=O)(O)OC[C@H]3O[C@@H](n4ccc(=O)[nH]c4=O)[C@H](O)[C@@H]3O)O2)c(=O)[nH]c1=O"
Ans. 350

Qu. Input "Nc1nc2c(ncn2[C@@H]2O[C@H](COP(=O)(O)OP(=O)(O)OC[C@H]3O[C@@H](n4cnc5c(N)ncnc54)[C@H](O)[C@@H]3O)[C@@H](O)[C@H]2O)c(=O)[nH]1"
Ans. 1500

Qu. Okay, and "Nc1ccn([C@@H]2O[C@H](COP(=O)(O)OP(=O)(O)OP(=O)(O)OC[C@H]3O[C@@H](n4ccc(=O)[nH]c4=O)C[C@@H]3O)[C@@H](O)[C@H]2O)c(=O)n1" ?
Ans. 40000

Qu. Try "Nc1ccn([C@@H]2O[C@H](COP(=O)(O)OP(=O)(O)OP(=O)(O)OP(=O)(O)OC[C@H]3O[C@@H](n4ccc(=O)[nH]c4=O)[C@H](O)[C@@H]3O)[C@@H](O)[C@H]2O)c(=O)n1" next.
Ans. 850
